# Tested on: Staphylococcus epidermidis
# assay.details: In vitro antibacterial activity measured as minimum inhibitory concentration was evaluated on Staphylococcus epidermidis ATCC 155-1 (Se).
# Assay type: functional
# test.context: Staphylococcus epidermidis, ATCC 155-1; read-out: MIC
Rule: MIC below 0.1 µg/mL gives class 1. Equal to or above 0.1 µg/mL gives class 0.

Consider the following illustrative entries.
[[record]]
compound = "C[C@@H]1[C@@H](N)CN1c1c(F)cc2c(=O)c(C(=O)O)cn(-c3ccc(F)cc3F)c2c1Cl"
discrete_label = "class 0"

[[record]]
compound = "C[C@@H]1[C@@H](N)CN1c1nc2c(cc1F)c(=O)c(C(=O)O)cn2C1CC1"
discrete_label = "class 0"

[[record]]
compound = "C[C@H]1COc2c(N3CC(C)(N)C3)c(F)cc3c(=O)c(C(=O)O)cn1c23"
discrete_label = "class 0"

[[record]]
compound = "C[C@H]1[C@H](N)CN1c1c(F)cc2c(=O)c(C(=O)O)cn(C3CC3)c2c1F (single isomer, unassigned)"
discrete_label = "class 1"

[[record]]
compound = "C[C@@H]1[C@@H](N)CN1c1c(F)c(N)c2c(=O)c(C(=O)O)cn(-c3ccc(F)cc3F)c2c1F"
discrete_label = "class 0"

[[record]]
compound = "C[C@@H](N)C(=O)N[C@@H]1CN(c2nc3c(cc2F)c(=O)c(C(=O)O)cn3C2CC2)[C@H]1C"
discrete_label = "class 0"


[in] Here's an entry: CC1C(N)CN1c1c(F)cc2c(=O)c(C(=O)O)cn(-c3ccc(F)cc3F)c2c1F (stereo unspecified) . Is its MIC below 0.1 µg/mL?
[out] class 0

[in] Thanks! And Cc1c(F)c(N2C[C@H](N)[C@H]2C)nc2c1c(=O)c(C(=O)O)cn2-c1ccc(F)cc1F ?
[out] class 1

[in] Thanks! And C[C@H]1COc2c(N3CC(C)(N(C)C)C3)c(F)cc3c(=O)c(C(=O)O)cn1c23 ?
[out] class 0

[in] Thanks! And Cc1c(F)c(N2C[C@H](N)[C@H]2C)nc2c1c(=O)c(C(=O)O)cn2C1CC1 ?
[out] class 0

[in] Thanks! And CC1C(N)CN1c1c(F)cc2c(=O)c(C(=O)O)cn(-c3ccc(F)cc3F)c2c1Cl (stereo unspecified) ?
[out] class 1

[in] Thanks! And C[C@H](N)C(=O)N[C@@H](C)C(=O)N[C@@H]1CN(c2nc3c(cc2F)c(=O)c(C(=O)O)cn3C2CC2)[C@H]1C ?
[out] class 0

[in] Thanks! And C[C@@H]1[C@@H](N)CN1c1c(F)cc2c(=O)c(C(=O)O)cn3c2c1OC[C@@H]3C ?
[out] class 0
